Entry source: ChEMBL document CHEMBL1811819

- target.system: Human immunodeficiency virus type 1 integrase (Human immunodeficiency virus 1)
- test.protocol: Inhibition of HIV1 recombinant integrase 3'-processing and strand transfer activity using 21-mer U5B/U5A duplex oligonucleotides after 1 hr
- condition.info: read-out: IC50
pIC50: −log10 of the molar value.
value.type: pIC50

CCOC(=O)CC(=O)NS(=O)(=O)c1ccc(C)cc1; 3.30
CCOC(=O)CC(=O)Nc1ccc2cccc(O)c2n1; 4.38

1 = CCOC(=O)CC(=O)Nc1ccc(C(=O)O)cc1
2 = CCOC(=O)CC(=O)Nc1ccc(C)cc1
Which of the two gives a bigger number for pIC50: 1 or 2 ? Give the label of your selection.
1

====

- target.system: Human immunodeficiency virus type 1 integrase (Human immunodeficiency virus 1, UniProt Q7ZJM1)
- Sequence (Q7ZJM1 whole entry): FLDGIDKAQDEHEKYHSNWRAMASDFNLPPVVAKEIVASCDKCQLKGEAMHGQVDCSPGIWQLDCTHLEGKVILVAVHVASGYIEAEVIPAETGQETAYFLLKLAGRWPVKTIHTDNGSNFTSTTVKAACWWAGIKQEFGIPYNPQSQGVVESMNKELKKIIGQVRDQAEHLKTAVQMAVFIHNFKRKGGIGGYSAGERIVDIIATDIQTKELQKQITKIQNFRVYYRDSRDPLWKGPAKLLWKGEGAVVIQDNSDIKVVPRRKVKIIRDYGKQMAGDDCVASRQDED
- test.protocol: Inhibition of HIV1 integrase
value.type: pIC50
Please note pIC50 is a logarithmic value: minus log10 of concentration in mol/L. Answer with that number alone.

// recorded pIC50 for Cc1ccc2c(O)c(C(=O)O)ccc2n1 : 4.33

====

- target.system: Human immunodeficiency virus type 1 integrase (Human immunodeficiency virus 1, UniProt Q7ZJM1)
- test.protocol: Inhibition of HIV1 recombinant integrase 3'-processing and strand transfer activity using 21-mer U5B/U5A duplex oligonucleotides after 1 hr
- condition.info: read-out: IC50
Recorded IC50 values for a group of compounds are listed next.

// recorded IC50 for CCOC(=O)CC(=O)NCc1ccc(F)cc1 : > 100 µM

// recorded IC50 for CCOC(=O)CC(=O)Nc1cc(C(=O)O)ccc1O : > 300 µM

// recorded IC50 for Cc1ccc(NC(=O)CC(=O)O)c([N+](=O)[O-])c1 : > 100 µM

// recorded IC50 for CCOC(=O)CC(=O)Nc1c(Cl)cccc1Cl : > 100 µM
